Reference source for all entries: the supplement of paper PMC10567573

B1: NP_002788.1 (parent)
chain: DGWIRVSSDNVADLHEKYSGSTP

# Variants of: B1
# Assay text: protein stability index of a GFP-peptide fusion (GPS, HEK-293T) (PSI 1-6); higher = more stable;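 also: lentivirally expressed fusion library, cells FACS-sorted into six equal-sized GFP/DsRed ratio bins, PSI computed from sequencing read fractions per bin weighted by bin number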
# Stated conditions: c terminus: native
This listing pairs variants with measured protein stability index.

Solved entries:
# Variant string, protein stability index
rows = [
    ("L14A", 2.84),
    ("S21K", 3.06),
    ("P23G", 4.43),
    ("V6I", 2.21),
]

Exercise: Dear colleague, I am looking for the recorded protein stability index of the following variant: `E16Q`
Key: 2.87

Exercise: Please do the same for `A12Q` as well.
Key: 2.25

Exercise: Please do the same for `V6E` as well.
Key: 3.77
